# METHOD_NOTES: P. berghei load reduction in hepatocytes – cell-based, HepG2, luciferase luminescence, HepG2 viability, primary screen (AID 624349);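 note: 100% = mean of DMSO negative control wells on the same plate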
# CONDITION_LABEL: P. berghei liver stage in HepG2, luciferase luminescence, concentration not given here; stronger effect = lower value
Field: label. Allowed values: y (parasite load remaining < 60%) or n (parasite load remaining >= 60%).

Example entries and their recorded answers appear below.
>  <MOLECULE>
NCC1OC(COC[C@@H]2C(O)[C@H](OC3C(O)C(N)CC(N)C3OC3OC(CN)C(O)C(O)C3N)O[C@@H]2CO)C(N)C(O)C1O (some centres not stated)

>  <LABEL_CLASS>
n

$$$$
>  <MOLECULE>
N#Cc1cc([N+](=O)[O-])c2sc(C(N)=O)[n+]([O-])c2c1

>  <LABEL_CLASS>
y

$$$$
>  <MOLECULE>
CCOCCOCCOCCOCCOCCOCCOCCOCCOCCO (tested in a mixture with another compound)

>  <LABEL_CLASS>
y

$$$$
>  <MOLECULE>
CC(C)C(CO)Nc1nc(Nc2cccc(Cl)c2)c2ncn(C(C)C)c2n1 (configuration not stated)

>  <LABEL_CLASS>
y

$$$$
>  <MOLECULE>
Cn1nnnc1SCC1=C(C(=O)O)N2C(=O)[C@@H](NC(=O)[C@H](O)c3ccccc3)[C@H]2SC1

>  <LABEL_CLASS>
n

$$$$
>  <MOLECULE>
CCC(=O)OC1C(C)OC(OC2C(C)OC(O[C@H]3[C@@H](CC=O)C[C@@H](C)[C@@H](O)/C=C/C=C/C[C@@H](C)OC(=O)C[C@@H](OC(=O)CC)[C@@H]3OC)C(O)C2N(C)C)CC1(C)O (some centres not stated)

>  <LABEL_CLASS>
n

$$$$
>  <MOLECULE>
CC[C@@]1([C@@H]2O[C@@H]([C@H]3O[C@@](O)(CO)[C@H](C)C[C@@H]3C)C[C@@H]2C)CC[C@H]([C@]2(C)CC[C@]3(C[C@H](O)[C@@H](C)[C@@H]([C@@H](C)[C@@H](OC)[C@H](C)C(=O)O)O3)O2)O1 (stereo in doubt)

>  <LABEL_CLASS>
y

$$$$
>  <MOLECULE>
O=C1NCCc2[nH]c(-c3ccnc(-c4cnc5ccccc5c4)c3)cc21

>  <LABEL_CLASS>
y

$$$$
>  <MOLECULE>
NCC1OC(OC2C(N)CC(N)C(OC3OC(CO)C(O)C(N)C3O)C2O)C(O)C(O)C1O (configuration not stated)

>  <LABEL_CLASS>
n

$$$$
>  <MOLECULE>
CC(C)N1CCN(c2ccc(OC[C@@H]3CO[C@@](Cn4cncn4)(c4ccc(Cl)cc4Cl)O3)cc2)CC1

>  <LABEL_CLASS>
y

$$$$

q: Consider N#Cc1cnc2cnc(NCc3cccnc3)cc2c1Nc1ccc(F)c(Cl)c1 . Does its parasite load remaining lie strictly below 60%?
a: y

q: Consider O=c1cc(-c2ccc(O)cc2)oc2c(C3O[C@H](CO)[C@@H](O)[C@H](O)[C@H]3O)c(O)cc(O)c12 (some centres not stated) . Does its parasite load remaining lie strictly below 60%?
a: n

----------
# METHOD_NOTES: galactose survival enhancers in mitochondrial complex I cybrids – cell-based, galactose medium, ATP luminescence, primary screen (AID 1645843);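 note: positive z means more ATP and so rescue of galactose-driven cybrid death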
# CONDITION_LABEL: complex I mutant cybrid cells, 72 h, stronger effect = higher value
Overview of recorded z-score for various molecules
Give a plain numeric answer without units written out.

>  <MOLECULE>
CC(C)Cc1noc(C2C3CCC4C(CCC32)C4(Cl)Cl)n1 (stereo not drawn)

>  <TEST_READOUT>
z-score

>  <OBSERVED_RESULT>
-0.52

$$$$

q: Bench note: what z-score did COc1cc(Cn2cnc3nccnc3c2=O)cc(OC)c1 show?
a: -0.515

q: Bench note: what z-score did CC(C)c1cccc(C(C)C)c1N1C(=O)c2ccc(O)cc2C1=O show?
a: 0.3

----------
# METHOD_NOTES: viability loss with induced miR-34 in A549 – imaging, A549 dox-inducible miR-34, nuclei and caspase counts, primary screen (AID 1347080)
# CONDITION_LABEL: A549 miR-34 inducible, Hoechst nuclei count, 48 h; measured here: total cells without miR-34 induction
TEST_READOUT: cell count
Give a plain numeric answer without units written out.

q: Bench note: what cell count did COC(=O)CN1CCN(C(=O)Nc2n[nH]c(-c3ccco3)n2)CC1=O show?
a: 10300

q: Bench note: what cell count did O=C(CS(=O)Cc1ccco1)NCC=CCOc1cc(CN2CCCCC2)ccn1 (stereo unspecified) show?
a: 9240

q: Bench note: what cell count did NC[C@H]1O[C@H](O[C@H]2[C@H](O)[C@@H](O[C@H]3O[C@H](CO)[C@@H](O)[C@H](N)[C@H]3O)[C@H](N)C[C@@H]2N)[C@H](O)[C@@H](O)[C@@H]1O show?
a: 9860

q: Bench note: what cell count did Cc1nn(C)cc1-c1ccnc(NC2CCOC(C)(C)C2)n1 (stereo unspecified) show?
a: 9990

q: Bench note: what cell count did COC(=O)C1C(O)CC[C@H]2CN3CCc4c([nH]c5ccccc45)[C@@H]3C[C@H]12 (stereo partly specified) show?
a: 9910

q: Bench note: what cell count did O=c1ccn2c(n1)OC1C(O)C(CO)OC12 (stereo unspecified) show?
a: 9930

----------
# METHOD_NOTES: galactose survival enhancers in mitochondrial complex I cybrids – cell-based, galactose medium, ATP luminescence, primary screen (AID 1645843);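 note: positive z means more ATP and so rescue of galactose-driven cybrid death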
# CONDITION_LABEL: complex I mutant cybrid cells, 72 h
Active and inactive are the calls of the source.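 Rule for the calls: active = z-score of at least 1.8 in each of two replicates, scored against plate mean and spread of sample wells; inactive = the rest.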
Pick one: active, inactive

q: Query: recorded result category for CC(C)CNC(=O)[C@@H]1C[C@H](CN2CCOCC2)CN(Cc2ccccc2)C1 in this test
a: inactive

q: Query: recorded result category for CC(=O)OC1CC2CCC3C(CCC4(C)C3CC([N+]3(C)CCCCC3)C4OC(C)=O)C2(C)CC1[N+]1(C)CCCCC1 (stereo not given) in this test
a: inactive

q: Query: recorded result category for O=C(O)Cc1ccc(O)c([N+](=O)[O-])c1 in this test
a: inactive

q: Query: recorded result category for Cc1ncc(-c2cc(C(=O)N(C)Cc3csc(C)n3)c3ccc(F)cc3n2)cn1 in this test
a: inactive

q: Query: recorded result category for CCCCNC(=O)[C@@H]1C[C@H](CN2CCOCC2)CN(Cc2ccc(O)cc2)C1 in this test
a: inactive

q: Query: recorded result category for CC(Oc1ccc2c(c1)OCO2)C(=O)N(Cc1nccn1C)C(C)C (stereo not given) in this test
a: inactive

q: Query: recorded result category for N#C/C(=C\c1ccc(O)c(O)c1)C(=O)c1ccc(O)c(O)c1 in this test
a: inactive

q: Query: recorded result category for Cc1cc(-c2cnn(C)c2)nc(N)n1 in this test
a: inactive

q: Query: recorded result category for Cc1nsc(NC(=O)N2CCCCC2c2nc(C(C)C)no2)n1 (stereo not given) in this test
a: inactive

q: Query: recorded result category for CCCCS(=O)(=O)CCC(=O)O in this test
a: inactive

q: Query: recorded result category for CC(NC(=O)OCc1ccccc1)C(=O)O (stereo not given) in this test
a: inactive

----------
# METHOD_NOTES: compounds altering viability of human ES cells (AID 493140);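 note: cells exposed to compounds for four days before counting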
# CONDITION_LABEL: human embryonic stem cell survival screen; stronger effect = higher value
Activity calls are given as the source filed them. No rule for the calls is given here.
TEST_READOUT: survival

Recorded results for 4 molecules are shown here.
>  <MOLECULE>
C=C(C)[C@@H]1CC[C@]2(CO)CC[C@]3(C)[C@H](CC[C@@H]4[C@@]5(C)CCC(O)C(C)(C)[C@@H]5CC[C@]43C)[C@@H]12 (some centres undefined)

>  <OBSERVED_RESULT>
7.33 (inactive)

$$$$
>  <MOLECULE>
C[C@H](C(=O)O)c1cccc(C(=O)c2ccccc2)c1

>  <OBSERVED_RESULT>
115 (inactive)

$$$$
>  <MOLECULE>
C[C@]12CCC(=O)C[C@H]1CC(=O)[C@@H]1[C@@H]2CC(=O)[C@]2(C)CCC[C@@H]12 (tested in a mixture with another compound)

>  <OBSERVED_RESULT>
19.5 (inactive)

$$$$
>  <MOLECULE>
CCCCC/C=C\CC1OC1CCCCCCCC(=O)O (centres undefined)

>  <OBSERVED_RESULT>
79.6 (inactive)

$$$$

q: Bench note: what survival did COC(=O)Nc1nc2ccc(SC(C)C)cc2[nH]1 show?
a: 0.5 (inactive)

q: Bench note: what survival did COc1ccc2c(c1)N(C[C@H](C)CN(C)C)c1ccccc1S2 show?
a: 1.83 (inactive)

q: Bench note: what survival did NC(=O)c1ncn([C@@H]2O[C@H](CO)[C@H](O)C2O)n1 (some centres undefined) show?
a: 1.33 (inactive)

q: Bench note: what survival did CCCCCCCN[C@H]1CCC[C@@H]1CCCCCCC(=O)O show?
a: 114 (inactive)

q: Bench note: what survival did CCCCC(C)(O)C/C=C/[C@H]1[C@H](O)CC(=O)[C@@H]1CCCCCCC(=O)O (some centres undefined) show?
a: 92.9 (inactive)
